- Tested on: Candida albicans
- experiment: Minimum inhibitory concentration against Candida albicans FP579 strain
- Format: functional
measure-name: MIC (µg/mL)
// return numeric value only (unit: µg/mL, not printed)

- input-smiles: "CCCCCCCCCCCCC[C@@H]1CC(=O)N[C@H]([C@@H](C)O)C(=O)N[C@H](C)C(=O)N[C@@H](Cc2ccc(O)cc2)C(=O)N[C@@H](C(C)C)C(=O)N2C[C@H](O)C[C@H]2C(=O)N[C@H]([C@@H](C)O)C(=O)N[C@@H]([C@@H](C)O)C(=O)N2CC[C@H](O)[C@H]2C(=O)N[C@@H]([C@H](O)CC(N)=O)C(=O)NCC(=O)N[C@H]([C@@H](C)O)C(=O)N[C@@H](CCCNC(=O)CO)C(=O)O1"
  unit-abbreviation: "µg/mL"
  MIC: 0.78
- input-smiles: "CCCCCCCCCCCCC[C@@H]1CC(=O)N[C@H]([C@@H](C)O)C(=O)N[C@H](C)C(=O)N[C@@H](Cc2ccc(O)cc2)C(=O)N[C@@H](C(C)C)C(=O)N2C[C@H](O)C[C@H]2C(=O)N[C@H]([C@@H](C)O)C(=O)N[C@@H]([C@@H](C)O)C(=O)N2CC[C@H](O)[C@H]2C(=O)N[C@@H]([C@H](O)CC(N)=O)C(=O)NCC(=O)N[C@H]([C@@H](C)O)C(=O)N[C@@H](CCCNC(=O)CN(C)C)C(=O)O1.Cl"
  unit-abbreviation: "µg/mL"
  MIC: 0.78
- input-smiles: "CCCCCCCCCCCCC[C@@H]1CC(=O)N[C@H]([C@@H](C)O)C(=O)N[C@H](C)C(=O)N[C@@H](Cc2ccc(O)cc2)C(=O)N[C@@H](C(C)C)C(=O)N2C[C@H](O)C[C@H]2C(=O)N[C@H]([C@@H](C)O)C(=O)N[C@@H]([C@@H](C)O)C(=O)N2CC[C@H](O)[C@H]2C(=O)N[C@@H]([C@H](O)CC(N)=O)C(=O)NCC(=O)N[C@H]([C@@H](C)O)C(=O)N[C@@H](CCCNC(=O)[C@@H](N)CCCN)C(=O)O1.Cl"
  unit-abbreviation: "µg/mL"
  MIC: 0.78
- input-smiles: "CCCCCCCCCCCCC[C@@H]1CC(=O)N[C@H]([C@@H](C)O)C(=O)N[C@H](C)C(=O)N[C@@H](Cc2ccc(O)cc2)C(=O)N[C@@H](C(C)C)C(=O)N2C[C@H](O)C[C@H]2C(=O)N[C@H]([C@@H](C)O)C(=O)N[C@@H]([C@@H](C)O)C(=O)N2CC[C@H](O)[C@H]2C(=O)N[C@@H]([C@H](O)CC(N)=O)C(=O)NCC(=O)N[C@H]([C@@H](C)O)C(=O)N[C@@H](CCCNC(=O)CCN)C(=O)O1.Cl"
  unit-abbreviation: "µg/mL"
  MIC: 0.39
- input-smiles: "CCCCCCCCCCCCC[C@@H]1CC(=O)N[C@H]([C@@H](C)O)C(=O)N[C@H](C)C(=O)N[C@@H](Cc2ccc(O)cc2)C(=O)N[C@@H](C(C)C)C(=O)N2C[C@H](O)C[C@H]2C(=O)N[C@H]([C@@H](C)O)C(=O)N[C@@H]([C@@H](C)O)C(=O)N2CC[C@H](O)[C@H]2C(=O)N[C@@H]([C@H](O)CC(N)=O)C(=O)NCC(=O)N[C@H]([C@@H](C)O)C(=O)N[C@@H](CCCNC(=O)CCCN)C(=O)O1.Cl"
  unit-abbreviation: "µg/mL"
  MIC: 1.56
- input-smiles: "CCCCCCCCCCCCC[C@@H]1CC(=O)N[C@H]([C@@H](C)O)C(=O)N[C@H](C)C(=O)N[C@@H](Cc2ccc(O)cc2)C(=O)N[C@@H](C(C)C)C(=O)N2C[C@H](O)C[C@H]2C(=O)N[C@H]([C@@H](C)O)C(=O)N[C@@H]([C@@H](C)O)C(=O)N2CC[C@H](O)[C@H]2C(=O)N[C@@H]([C@H](O)CC(N)=O)C(=O)NCC(=O)N[C@H]([C@@H](C)O)C(=O)N[C@@H](CCCNC(=O)CCCCN)C(=O)O1.Cl"
  unit-abbreviation: "µg/mL"
  MIC: 0.78

## Task Looking for the measured MIC of `CCCCCCCCCCCCC[C@@H]1CC(=O)N[C@H]([C@@H](C)O)C(=O)N[C@H](C)C(=O)N[C@@H](Cc2ccc(O)cc2)C(=O)N[C@@H](C(C)C)C(=O)N2C[C@H](O)C[C@H]2C(=O)N[C@H]([C@@H](C)O)C(=O)N[C@@H]([C@@H](C)O)C(=O)N2CC[C@H](O)[C@H]2C(=O)N[C@@H]([C@H](O)CC(N)=O)C(=O)NCC(=O)N[C@H]([C@@H](C)O)C(=O)N[C@@H](CCCNC(=O)CN)C(=O)O1.Cl` , can you help?
## Result 0.78

## Task Looking for the measured MIC of `CCCCCCCCCCCCC[C@@H]1CC(=O)N[C@H]([C@@H](C)O)C(=O)N[C@H](C)C(=O)N[C@@H](Cc2ccc(O)cc2)C(=O)N[C@@H](C(C)C)C(=O)N2C[C@H](O)C[C@H]2C(=O)N[C@H]([C@@H](C)O)C(=O)N[C@@H]([C@@H](C)O)C(=O)N2CC[C@H](O)[C@H]2C(=O)N[C@@H]([C@H](O)CC(N)=O)C(=O)NCC(=O)N[C@H]([C@@H](C)O)C(=O)N[C@@H](CCCNC(=O)CCCCCN)C(=O)O1.Cl` , can you help?
## Result 0.78

## Task Looking for the measured MIC of `CCCCCCCCCCCCC[C@@H]1CC(=O)N[C@H]([C@@H](C)O)C(=O)N[C@H](C)C(=O)N[C@@H](Cc2ccc(O)cc2)C(=O)N[C@@H](C(C)C)C(=O)N2C[C@H](O)C[C@H]2C(=O)N[C@H]([C@@H](C)O)C(=O)N[C@@H]([C@@H](C)O)C(=O)N2CC[C@H](O)[C@H]2C(=O)N[C@@H]([C@H](O)CC(N)=O)C(=O)NCC(=O)N[C@H]([C@@H](C)O)C(=O)N[C@@H](CCCNC(C)=O)C(=O)O1` , can you help?
## Result 0.78

## Task Looking for the measured MIC of `CCCCCCCCCCCCC[C@@H]1CC(=O)N[C@H]([C@@H](C)O)C(=O)N[C@H](C)C(=O)N[C@@H](Cc2ccc(O)cc2)C(=O)N[C@@H](C(C)C)C(=O)N2C[C@H](O)C[C@H]2C(=O)N[C@H]([C@@H](C)O)C(=O)N[C@@H]([C@@H](C)O)C(=O)N2CC[C@H](O)[C@H]2C(=O)N[C@@H]([C@H](O)CC(N)=O)C(=O)NCC(=O)N[C@H]([C@@H](C)O)C(=O)N[C@@H](CCCNC(=O)CNC)C(=O)O1.Cl` , can you help?
## Result 0.39

====

MIC reference
- Test system: Candida albicans
- experiment: Minimum inhibitory concentration against Candida albicans FP633 strain
- Assay type: functional
// return numeric value only (unit: µg/mL, not printed)

## Task Looking for the measured MIC of `CCCCCCCCCCCCC[C@@H]1CC(=O)N[C@H]([C@@H](C)O)C(=O)N[C@H](C)C(=O)N[C@@H](Cc2ccc(O)cc2)C(=O)N[C@@H](C(C)C)C(=O)N2C[C@H](O)C[C@H]2C(=O)N[C@H]([C@@H](C)O)C(=O)N[C@@H]([C@@H](C)O)C(=O)N2CC[C@H](O)[C@H]2C(=O)N[C@@H]([C@H](O)CC(N)=O)C(=O)NCC(=O)N[C@H]([C@@H](C)O)C(=O)N[C@@H](CCCNC(=O)CCN)C(=O)O1.Cl` , can you help?
## Result 0.39

## Task Looking for the measured MIC of `CCCCCCCCCCCCC[C@@H]1CC(=O)N[C@H]([C@@H](C)O)C(=O)N[C@H](C)C(=O)N[C@@H](Cc2ccc(O)cc2)C(=O)N[C@@H](C(C)C)C(=O)N2C[C@H](O)C[C@H]2C(=O)N[C@H]([C@@H](C)O)C(=O)N[C@@H]([C@@H](C)O)C(=O)N2CC[C@H](O)[C@H]2C(=O)N[C@@H]([C@H](O)CC(N)=O)C(=O)NCC(=O)N[C@H]([C@@H](C)O)C(=O)N[C@@H](CCCNC(=O)CO)C(=O)O1` , can you help?
## Result 0.39

## Task Looking for the measured MIC of `CCCCCCCCCCCCC[C@@H]1CC(=O)N[C@H]([C@@H](C)O)C(=O)N[C@H](C)C(=O)N[C@@H](Cc2ccc(O)cc2)C(=O)N[C@@H](C(C)C)C(=O)N2C[C@H](O)C[C@H]2C(=O)N[C@H]([C@@H](C)O)C(=O)N[C@@H]([C@@H](C)O)C(=O)N2CC[C@H](O)[C@H]2C(=O)N[C@@H]([C@H](O)CC(N)=O)C(=O)NCC(=O)N[C@H]([C@@H](C)O)C(=O)N[C@@H](CCCNC(=O)[C@@H]2CCN2)C(=O)O1.Cl` , can you help?
## Result 0.39
